experimental.system: cDNA-expressed human hepatic CYP3A4 (Homo sapiens (Human))
assay.text: Measurement of CYP (IC50 of P450 CYP3A4), BFC substrate
Assay type: in vitro ADME
measurement.conditions: 20 minutes
property: IC50 (µM)

P: C=CCN1CC(=O)N2[C@@H](Cc3ccc(O)cc3)C(=O)N(Cc3cccc4c(C(=O)N[C@H](C)C(=O)OC)cn(C)c34)C[C@@H]2N1C(=O)NCc1ccccc1 [Compound F-21]
Q: C=CCN1CC(=O)N2C(Cc3ccc(O)cc3)C(=O)N(Cc3cccc4c(C(=O)Nc5ccc(N6CCN(CCO)CC6)nc5)cn(C)c34)CC2N1C(=O)NCc1ccccc1 (stereo not drawn) [Compound G-44]
Could you check which of P and Q has a smaller value for IC50? Could you answer with the label of the item you picked?
Q

---

experimental.system: cDNA-expressed human hepatic CYP3A4 (Homo sapiens (Human), UniProt P08684)
Sequence (P08684 whole entry): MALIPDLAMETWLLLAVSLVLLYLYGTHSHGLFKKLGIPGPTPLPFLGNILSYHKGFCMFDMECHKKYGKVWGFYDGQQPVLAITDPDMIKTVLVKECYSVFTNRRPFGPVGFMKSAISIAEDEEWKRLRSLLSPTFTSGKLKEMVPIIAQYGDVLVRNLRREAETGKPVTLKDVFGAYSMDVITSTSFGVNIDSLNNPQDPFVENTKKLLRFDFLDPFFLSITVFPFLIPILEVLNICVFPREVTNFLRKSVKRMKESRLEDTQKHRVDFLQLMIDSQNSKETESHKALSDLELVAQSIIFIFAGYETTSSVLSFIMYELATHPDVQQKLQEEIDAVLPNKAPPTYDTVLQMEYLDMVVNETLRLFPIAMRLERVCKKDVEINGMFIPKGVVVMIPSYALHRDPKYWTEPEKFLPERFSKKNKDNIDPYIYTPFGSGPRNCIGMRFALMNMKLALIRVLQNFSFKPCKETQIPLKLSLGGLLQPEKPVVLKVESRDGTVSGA
assay.text: Measurement of CYP (IC50 of P450 CYP3A4), BFC substrate
Assay type: in vitro ADME
measurement.conditions: 20 minutes
property: IC50 (µM)

INSERT INTO assay_data (molecule, quantitative_readout) VALUES
  ('C=CCN1CC(=O)N2[C@@H](Cc3ccc(O)cc3)C(=O)N(Cc3cccc4c(C(=O)NCCC(=O)OCC)cn(C)c34)C[C@@H]2N1C(=O)NCc1ccccc1', 3.58),
  ('C=CCN1CC(=O)N2C(Cc3ccc(O)cc3)C(=O)N(Cc3cccc4c(-c5ccc(NC(=O)N6CCN(S(C)(=O)=O)CC6)nc5)cn(C)c34)CC2N1C(=O)NCc1ccccc1 (stereo not shown)', 6.4),
  ('C=CCN1CC(=O)N2C(CN(Cc3cccc4c(C(=O)Nc5ccc(N6CCN(CC)CC6)nc5)cn(C)c34)C(=O)[C@@H]2Cc2ccc(O)cc2)N1C(=O)NCc1ccccc1 (stereo partly shown)', 5.73),
  ('C=CCN1CC(=O)N2[C@@H](Cc3ccc(O)cc3)C(=O)N(Cc3cccc4c(C(=O)N5CCN6CCN(CC)CC6C5)cn(C)c34)C[C@@H]2N1C(=O)NCc1ccccc1 (stereo partly shown)', 5.04),
  ('C=CCN1CC(=O)N2[C@@H](Cc3ccc(O)cc3)C(=O)N(Cc3cccc4c(C(=O)Nc5ccc(N6CCCCC6)nc5)cn(C)c34)C[C@@H]2N1C(=O)NCc1ccccc1', 12.2),
  ('C=CCN1CC(=O)N2[C@@H](Cc3ccc(O)cc3)C(=O)N(Cc3cccc4c(C(=O)N5CCC(N(C)C)CC5)cn(C)c34)C[C@@H]2N1C(=O)NCc1ccccc1', 2.23);

I: C=CCN1CC(=O)N2[C@@H](Cc3ccc(O)cc3)C(=O)N(Cc3cccc4c(C(=O)N5CCN(C(C)C)CC5)cn(C)c34)C[C@@H]2N1C(=O)NCc1ccccc1
II: C=CCN1CC(=O)N2[C@@H](Cc3ccc(O)cc3)C(=O)N(Cc3cccc4c(-c5ccc(NC(=O)NC6CCCC6)cc5)cn(C)c34)C[C@@H]2N1C(=O)NCc1ccccc1
Which of the two gives a bigger number for IC50: I or II ? Identify your pick by its label.
II

---

experimental.system: cDNA-expressed human hepatic CYP3A4 (Homo sapiens (Human))
assay.text: Measurement of CYP (IC50 of P450 CYP3A4), BFC substrate
Type: in vitro ADME
measurement.conditions: 20 minutes
property: IC50 (µM)

For orientation, consider the following solved cases.
INSERT INTO measurements (compound, property, quantitative_readout) VALUES
  ('C=CCN1CC(=O)N2C(Cc3ccc(O)cc3)C(=O)N(Cc3cccc4c(C(=O)Nc5ccc(N6CCN(C(C)(C)C)CC6)nc5)cn(C)c34)CC2N1C(=O)NCc1ccccc1 (stereo not shown) [Compound G-48]', 'IC50', 4.19),
  ('C=CCN1CC(=O)N2[C@@H](Cc3ccc(O)cc3)C(=O)N(Cc3cccc4c(C(=O)NN5CCCCC5)cn(C)c34)C[C@@H]2N1C(=O)NCc1ccccc1 [Compound F-57]', 'IC50', 4.78);

a: C=CCN1CC(=O)N2[C@@H](Cc3ccc(O)cc3)C(=O)N(Cc3cccc4c(C(=O)Nc5ccc(N6CC(N7CCN(C)CC7)C6)nc5)cn(C)c34)C[C@@H]2N1C(=O)NCc1ccccc1 [Compound G-62]
b: C=CCN1CC(=O)N2[C@@H](Cc3ccc(O)cc3)C(=O)N(Cc3cccc4c(-c5ccc(NC(=O)NCc6ccccc6)nc5)cn(C)c34)C[C@@H]2N1C(=O)NCc1ccccc1 [Compound D-93]
Lower value of IC50 belongs to which: a or b ? Please reply using the label of the selected record.
a
(a: 4.1 µM, b: 20.4 µM)

a: C=CCN1CC(=O)N2C(Cc3ccc(O)cc3)C(=O)N(Cc3cccc4c(C(=O)Nc5ccc(N6CCN(c7ccc(C(F)(F)F)cc7)CC6)nc5)cn(C)c34)CC2N1C(=O)NCc1ccccc1 (stereo not shown) [Compound G-58]
b: C=CCN1CC(=O)N2C(Cc3ccc(O)cc3)C(=O)N(Cc3cccc4c(C(=O)Nc5ccc(N6CCN(CCC)CC6)nc5)cn(C)c34)CC2N1C(=O)NCc1ccccc1 (stereo not shown) [Compound G-43]
c: C=CCN1CC(=O)N2[C@@H](Cc3ccc(O)cc3)C(=O)N(Cc3cccc4c(-c5ccc(C(=O)OC)cc5)cn(C)c34)C[C@@H]2N1C(=O)NCc1ccccc1 [Compound H-1]
d: C=CCN1CC(=O)N2[C@@H](Cc3ccc(O)cc3)C(=O)N(Cc3cccc4c(-c5ccc(NC(=O)NCCc6ccccc6)cc5)cn(C)c34)C[C@@H]2N1C(=O)NCc1ccccc1 [Compound D-75]
Write the entries in order, lowest recorded IC50 first. When ranking, write the labels in the order the request describes.
c, b, d, a
(c: 3.85 µM, b: 6.94 µM, d: 10.5 µM, a: 23.7 µM)
